# System: MDA-MB-231 breast
# test-description: NCI tumour cell line growth inhibition, 48 h
# Lookup of reported GI50 keyed by entry
readout-label: GI50

{"compound": "COc1cc2c(cc1NC(=O)C(Cl)Cl)-c1ccc(NC(=O)C(Cl)Cl)cc1C2", "readout-label": "GI50", "recorded-measurement": "0.499 µM"}
{"compound": "COc1ccc(-c2c3c(N)c4c(nc3nc3c2c(C)nn3-c2ccccc2)CCCC4)cc1", "readout-label": "GI50", "recorded-measurement": "4.15 µM"}
{"compound": "Cn1c(C(=O)c2cccc3ccccc23)nc2ccccc21", "readout-label": "GI50", "recorded-measurement": "> 100 µM"}
{"compound": "COC(=O)c1cc([N+](=O)[O-])cc([N+](=O)[O-])c1Cl", "readout-label": "GI50", "recorded-measurement": "2.34 µM"}
{"compound": "Nc1nc(-c2ccc(Cl)cc2)nc2c1sc(=S)n2-c1ccccc1", "readout-label": "GI50", "recorded-measurement": "3.44 µM"}
{"compound": "COc1ccc(/C=N\\Nc2nc(SCC(C)C)nc(-c3ccc(OC)cc3)c2C#N)cc1", "readout-label": "GI50", "recorded-measurement": "6.66 µM"}
{"compound": "Cc1ccc(-n2c(-c3cc4c([nH]c5ccccc54)c(-c4cccc(O)c4)n3)n[nH]c2=S)cc1", "readout-label": "GI50", "recorded-measurement": "1.35 µM"}
{"compound": "C[C@@H](NC(=O)c1ccc(F)cc1)c1ccc2c(c1)CCN2C(=O)C1CCOCC1", "readout-label": "GI50", "recorded-measurement": "> 100 µM"}
{"compound": "CCn1ccnc1C(=O)/C=C/c1ccc(CC(=O)Nc2ccc(F)cc2)cc1", "readout-label": "GI50", "recorded-measurement": "4.36 µM"}
{"compound": "Clc1ccc([I+]c2ccc(Cl)cc2Cl)c(Cl)c1", "readout-label": "GI50", "recorded-measurement": "2.04 µM"}
{"compound": "Nc1nc2ccccc2c2c1S(=O)(=O)c1ccc(Cl)cc1C2=O", "readout-label": "GI50", "recorded-measurement": "1.57 µM"}
{"compound": "Cc1ccc(Cl)cc1-n1c(C)nc2c(cnn2-c2ccnc3c(C(F)(F)F)cccc23)c1=O", "readout-label": "GI50", "recorded-measurement": "> 100 µM"}
{"compound": "S=C(NCc1ccc2c(c1)OCO2)N1CCN(c2ncnc3c2oc2ccccc23)CC1", "readout-label": "GI50", "recorded-measurement": "> 100 µM"}
{"compound": "COc1cc(/C=C/C(=O)O[C@H]2[C@H](O[C@@H]3O[C@@H](C)[C@H](O)[C@@H](O)[C@H]3O)[C@@H](O)[C@H](OCCc3ccc(O)c(O)c3)O[C@@H]2COC2OCC(O)(CO)C2O)ccc1O (some centres undefined)", "readout-label": "GI50", "recorded-measurement": "> 100 µM"}
